target: cyclooxygenase 2 (COX-2); assay: Procedure I: ability of the compounds to inhibit cyclooxygenase 2 (6217/6218); conditions: Wh Cell
# Lookup of reported pIC50 keyed by entry
Please express pIC50 as -log10 of the molar concentration.

// below: answered compounds
O=C(NNc1ccc(Cl)cc1)c1ccc(Cl)cc1
6.47
O=C(NNc1ccccc1)c1ccc(Cl)cc1
6.48
O=C(NNc1ccccc1)c1ccccc1
5.00
O=C(NNc1ccc(Cl)cc1)c1ccccc1
6.28
Cc1ccc(NNC(=O)c2ccc(Cl)cc2)cc1
8.00

query: Look up pIC50 for this compound: COc1ccc(NNC(=O)c2ccc(Cl)cc2)cc1
result: 6.89

query: Follow-up item: Cc1ccc(NNC(=O)c2ccccc2)cc1
result: 6.48

query: Moving on to the next compound: COc1ccc(NNC(=O)c2ccccc2)cc1
result: 6.74

query: Same lookup for COc1ccc(C(=O)NNc2ccc(Cl)cc2)cc1 , please.
result: 6.33

---

Overview of reported pIC50 across a group of molecules:
target: cyclooxygenase 1 (COX-1); test: Procedure II: cyclooxygenase 1 activity (6226); details: RBL-1 cell homogenate supernatant
pIC50: −log10 of the molar value.

O=C(NNc1ccccc1)c1ccccc1
< 5.00
O=C(NNc1ccc(Cl)cc1)c1ccc(Cl)cc1
< 5.00

query: // query pIC50 value for entry COc1ccc(C(=O)NNc2ccc(Cl)cc2)cc1
result: < 5.00

query: Param item: O=C(NNc1ccccc1)c1ccc(Cl)cc1
result: < 5.00

query: What do you have for O=C(NNc1ccc(Cl)cc1)c1ccccc1 ?
result: < 5.00

---

biological target: cyclooxygenase 2 (COX-2); experiment: Procedure I: ability of the compounds to inhibit cyclooxygenase 2 (6217/6218); conditions: Wh Cell
pIC50: −log10 of the molar value.
As shown below, each of these compounds has a reported pIC50 value.

# count of solved cases: 2
COc1ccc(C(=O)NNc2ccccc2)cc1
< 5.00
CS(=O)(=O)c1ccc(NNC(=O)c2ccccc2)cc1
< 5.00

query: What value of pIC50 has been reported for the following compound? CS(=O)(=O)c1ccc(NNC(=O)c2ccc(Cl)cc2)cc1
result: < 5.00
